Values were extracted from patent US9346786B2.

measuredOn: recombinant human NK3 receptor (Homo sapiens (Human))
Sequence (P29371 whole entry): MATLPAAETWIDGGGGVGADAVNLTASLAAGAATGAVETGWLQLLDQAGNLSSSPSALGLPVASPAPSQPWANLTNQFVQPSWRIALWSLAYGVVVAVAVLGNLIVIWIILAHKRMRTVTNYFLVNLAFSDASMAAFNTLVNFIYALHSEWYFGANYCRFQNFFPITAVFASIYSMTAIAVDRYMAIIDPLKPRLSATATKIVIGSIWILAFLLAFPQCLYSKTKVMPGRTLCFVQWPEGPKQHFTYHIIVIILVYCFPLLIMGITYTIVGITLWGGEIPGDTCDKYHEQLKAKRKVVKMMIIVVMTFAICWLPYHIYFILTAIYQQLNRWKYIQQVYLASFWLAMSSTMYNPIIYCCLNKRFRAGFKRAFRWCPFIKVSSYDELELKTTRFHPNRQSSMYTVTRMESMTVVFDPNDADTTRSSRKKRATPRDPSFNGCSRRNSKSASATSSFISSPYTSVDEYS
assayComment: biochemical
Assay type: binding
conditionLabel: [3H]SR142801, membranes of HEK293 cells transiently expressing recombinant human NK3 receptor; read-out: Data Ki (hNK-3 receptor affinity)
Doc: threshold 8 nM (exclusive). Items with Ki beneath it return true; others return false.

Below, 6 compounds whose answers are already recorded.
N#Cc1ccc(N2CCC(C(=O)N3C[C@H](c4ccc(Cl)cc4)[C@@H](N(C(=O)Oc4ccc(F)cc4)C4CC4)C3)CC2)nc1 [Example 34]    false
CCN(C(=O)Oc1ccc(F)cc1)[C@@H]1CN(C(=O)C2CCN(C(C)=O)CC2)C[C@H]1c1ccc(Cl)c(F)c1 [Example 80]    true
CCN(C(=O)Oc1ccc(F)cc1)[C@@H]1CN(C(=O)C2CCN(C(=O)C3CC(F)(F)C3)CC2)C[C@H]1c1ccc(Cl)c(F)c1 [Example 66]    true
CCN(C(=O)Oc1ccc(F)cc1)[C@@H]1CN(C(=O)C2CCNCC2)C[C@H]1c1ccc(Cl)c(F)c1 [Example 56]    false
CCN(C(=O)Oc1ccc(F)cc1)[C@@H]1CN(C(=O)C2CCN(c3ccc(C(N)=O)cn3)CC2)C[C@H]1c1ccc(Cl)cc1 [Example 111]    true
CCN(C(=O)Oc1ccc(F)cc1)[C@@H]1CN(C(=O)C2CCN(C(=O)OC(C)(C)C)CC2)C[C@H]1c1ccc(Cl)c(F)c1 [Example 39]    true

*Q* Please state whether Ki is below 8 nM for CCN(C(=O)Oc1ccc(F)cc1)[C@@H]1CN(C(=O)C2CCN(C(=O)C3CCC(=O)NC3)CC2)C[C@H]1c1ccc(F)c(F)c1 (stereo partly shown) [Example 107]
*A* false

*Q* Please state whether Ki is below 8 nM for CCN(C(=O)Oc1ccc(F)cc1)[C@@H]1CN(C(=O)C2CCN(C(=O)c3ccc(C(F)(F)F)cn3)CC2)C[C@H]1c1ccc(Cl)c(F)c1 [Example 74]
*A* false

*Q* Please state whether Ki is below 8 nM for CCN(C(=O)Oc1ccc(F)cc1)[C@@H]1CN(C(=O)C2CCN(c3ccc(C(F)(F)F)cn3)CC2)C[C@H]1c1ccc(Cl)c(F)c1 [Example 42]
*A* true
